# Test system: tHIO+S
# PROTOCOL_SUMMARY: Ex vivo muscle strength (organ bath, isometric force) of tHIO+S muscle strips
# Set-up: species or system human
# CONDITION: Homo sapiens, logarithmic doses 1 nM to 10 mM, read-out: effective concentration to achieve half of the maximal response (EC50), muscle contraction
# Procedure: After an equilibration period, muscle force contraction was assayed using a logarithmic series of bethanechol doses ranging in concentration from 1 nM to 10 mM. Representative tensile response recordings are plotted for tHIO, tHIO+S and adult jejunum (FIG. 7B). […] To better visualize the differences between tHIO and tHIO+S the data was also plotted sans adult jejunum (FIG. 7C, right panel). tHIO and tHIO+S grafts were harvested and placed in ice-cold Hank's Balanced Salt Solution (HBSS). […]
VALUE_TYPE: pEC50
pEC50 field: float, defined as -log10 of concentration (mol/L).

Ask: Fill blank: measured pEC50 of the compound CC(C[N+](C)(C)C)OC(N)=O (stereo not shown) [bethanechol, Carbamyl-p-methylcholine chloride] is ____.
Reply: 4.83
